System: PC-12
PROCEDURE_DETAILS: Antioxidant activity in rat PC12 cells assessed as protection against hydroxyl radical-induced reduction of cell viability pretreated 1 he before […] incubated for 1 hr followed by washout measured after 14 hrs by MTT assay
Assay type: functional, cell-based
PARAMETER: EC50 (µM)

{"STRUCTURE_AS_SMILES": "COc1cc([C@H]2N[C@H](C(=O)O)Cc3c2[nH]c2ccccc32)ccc1O", "MEAS_VALUE": 72}
{"STRUCTURE_AS_SMILES": "O=C(O)[C@@H]1Cc2c([nH]c3ccccc23)[C@@H](c2ccccc2O)N1", "MEAS_VALUE": 72}
{"STRUCTURE_AS_SMILES": "COc1ccc([C@H]2N[C@H](C(=O)O)Cc3c2[nH]c2ccccc32)cc1", "MEAS_VALUE": 72}
